- Tested target: human NPR1 (Homo sapiens, UniProt P16066)
- Construct: host or cells: CHO-K1
- Sequence (P16066 33-1061): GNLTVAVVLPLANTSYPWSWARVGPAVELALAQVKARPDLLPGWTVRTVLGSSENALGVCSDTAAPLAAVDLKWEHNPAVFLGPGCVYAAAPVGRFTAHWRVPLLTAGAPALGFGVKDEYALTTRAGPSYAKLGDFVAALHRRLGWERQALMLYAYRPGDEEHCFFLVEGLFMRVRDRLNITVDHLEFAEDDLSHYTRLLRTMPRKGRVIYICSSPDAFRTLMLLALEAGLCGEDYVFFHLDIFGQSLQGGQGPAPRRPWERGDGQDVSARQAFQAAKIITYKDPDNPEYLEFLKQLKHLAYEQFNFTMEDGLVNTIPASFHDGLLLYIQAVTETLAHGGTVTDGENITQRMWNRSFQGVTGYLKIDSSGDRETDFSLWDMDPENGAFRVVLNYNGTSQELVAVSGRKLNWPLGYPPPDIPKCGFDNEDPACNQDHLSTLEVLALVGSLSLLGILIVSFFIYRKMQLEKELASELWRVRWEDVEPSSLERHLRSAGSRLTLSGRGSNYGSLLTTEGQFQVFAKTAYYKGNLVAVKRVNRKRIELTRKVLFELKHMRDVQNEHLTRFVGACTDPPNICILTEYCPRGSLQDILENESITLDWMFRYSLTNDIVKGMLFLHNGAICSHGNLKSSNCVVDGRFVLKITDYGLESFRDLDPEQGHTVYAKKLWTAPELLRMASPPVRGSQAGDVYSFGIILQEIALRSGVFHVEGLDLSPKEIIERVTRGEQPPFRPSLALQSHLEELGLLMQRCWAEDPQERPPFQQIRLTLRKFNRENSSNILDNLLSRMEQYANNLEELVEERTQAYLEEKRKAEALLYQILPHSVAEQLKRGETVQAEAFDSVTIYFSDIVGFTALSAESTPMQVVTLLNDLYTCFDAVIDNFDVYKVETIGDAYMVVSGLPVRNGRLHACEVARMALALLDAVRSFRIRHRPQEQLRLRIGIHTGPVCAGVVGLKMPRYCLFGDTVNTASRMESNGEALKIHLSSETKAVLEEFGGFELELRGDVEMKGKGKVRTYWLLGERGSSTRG
- Measurement notes: Cellular cGMP production assay, human NPR1 expressing CHO-K1 cells (CisBio HTRF)
- Assay type: cell-based
- Condition set: cGMP production, 30 min at 37° C., 12-point dose-response from 30 μM
- Description: Cellular cGMP is a major second messenger that mediates cell activities and is synthesized by activated NPR1 triggered by binding of the natural ligand ANP. […] The assay was performed according to manufacturer's instructions with minor deviations. […] The readout was performed using an Envision plate reader (PerkinElmer) with an excitation wavelength of 317 nm and an emission wavelength of 665 nm. cGMP concentration (Delta F [° %]) was calculated according to the following formulae: […]
Result type: AC50

{"Compound": "CC[C@@H](Nc1nc2c(c(N[C@@H](CN(C)C)c3ccccc3)n1)C[C@H](c1ccccc1)CC2)[C@H]1CC[C@H](C(=O)O)CC1", "Data value": "1810 nM"}
{"Compound": "CC[C@@H](Nc1nc2c(c(N[C@@H](CN3CCCC[C@H]3C)c3cnn(C)c3)n1)C[C@H](c1ccccc1)CC2)[C@H]1CC[C@H](C(=O)O)CC1", "Data value": "313 nM"}
{"Compound": "CC[C@@H](Nc1nc2c(c(N[C@@H](CN3CCCC4(CCOC4)C3)c3cnn(CC)c3)n1)C[C@H](c1ccccc1)CC2)[C@H]1CC[C@H](C(=O)O)CC1 (stereo partly drawn)", "Data value": "412 nM"}
{"Compound": "CCn1cc([C@H](CN2C3CCCC2CCC3)Nc2nc(N[C@H](C)c3ccc(C(=O)O)cc3)nc3c2C[C@H](c2cccc(F)c2)CC3)cn1", "Data value": "1200 nM"}
{"Compound": "CC[C@H]([C@H]1CC[C@H](C(=O)O)CC1)N(C)c1nc2c(c(N[C@@H](CN3CCCC3)c3ccccc3)n1)C[C@H](c1ccccc1)CC2", "Data value": "1070 nM"}
{"Compound": "CC[C@H]([C@H]1CC[C@H](C(=O)O)CC1)N(C)c1nc2c(c(N[C@@H](CN3CCCCC3)c3cnn(CC)c3)n1)C[C@@H](c1cccc(F)c1)CC2", "Data value": "477 nM"}
